Test system: MS2 coat protein
Assay: apparent KD of MS2 coat protein; higher = weaker reporter binding
Conditions: Eterna round: R107; input ligand: theophylline 2 mM
I'd appreciate it if you could supply apparent KD of MS2 coat protein values for the items below.
Number only, in nM; omit the unit.

Exercise: Annotate the sequence UGAUCCUACAGAGAUACCAGUGCCGCUGAGUGACCAGACACAUGAGGAUCACCCAUGUAACACCCUUGGCAGCUCAACUAGAGGG [Same State Theophylline B GF19] with its measured apparent KD of MS2 coat protein.
Solution: 98.7

Exercise: Annotate the sequence UUAGUAACGACGGCCGCCACUGAUUUUGGACAUGAGGAUCACCCAUGUAAAGAUCCUAGAAUGGUCAGGACCGGGUCUGAUAAUG [Exclusion Tryptophane B GF4] with its measured apparent KD of MS2 coat protein.
Solution: 54

Exercise: Annotate the sequence CUGUACAUCUCGGCCGCCACUGCAACAUGUAGAGAUGUAUAUGUACAUGAGGAUCACCCAUGUGGCAGGACCGGGAGGUGUGCAG [SSTryp B #27] with its measured apparent KD of MS2 coat protein.
Solution: 206

Exercise: Annotate the sequence GGUCUGUGGAGCGAUACCAGCUUGAGUGUACUGGCCAGGUACAUGAGGAUCACCCAUGUAAGCCCUUGGCAGCGCUCCAGAGACC [#1 Exclusion - Theophylline B Attempt #17 (HarryS)] with its measured apparent KD of MS2 coat protein.
Solution: 31.5

Exercise: Annotate the sequence AUGGCGUUGGUGGAGCGGUGAAAUGGCGAUACCAGCGUGGAAACACGCCCUUGGCAGCGCCAAAACAUGAGGAUCACCCAUGUUA [Usti] with its measured apparent KD of MS2 coat protein.
Solution: 59.8

Exercise: Annotate the sequence "ACACGGAAUGAUGGAUCACCUCGUGAAUCACGAGGACCGGUACGGCCGCCACUCGAAAACCGUGACCUGUACGAAAAGUGCAGGA" with its measured apparent KD of MS2 coat protein.
Solution: 250

###

Tested on: MS2 coat protein
Test: apparent KD of MS2 coat protein; higher = weaker reporter binding
Settings: Eterna round: R107; input ligand: theophylline 2 mM
value-type: apparent KD of MS2 coat protein

Exercise: State, for MS2 coat protein, measured apparent KD of MS2 coat protein of the sequence listed here: GGUGACUGCAUGUGGAAUUAAGGUAGGGAAGGAGCGCGGUAAGACGCAGGUAGGUCGCCCUACAUGAGGAUCACCCAUGUGGUGU [Beenmaer]
Solution: 0.5 µM

Exercise: State, for MS2 coat protein, measured apparent KD of MS2 coat protein of the sequence listed here: AAAGAUCGGAAACGAUCGGCGGCUUGGGCGCGAGGACCGGUACGGCCGCCACUCGGGAAACAUGAGGAUCACCCAUGUUGCUUCU [ETA NP+V+V2 #16]
Solution: 0.0119 µM

Exercise: State, for MS2 coat protein, measured apparent KD of MS2 coat protein of the sequence listed here: UGACAUGAGGAUCACCCAUGUGUAAGAGAAGGAGCGGCCGGAAGGCCAGGUAGGUCGCUCAGGUAGCGUGAGGAUCACCCGUGUG [big_hook]
Solution: 0.0975 µM

Exercise: State, for MS2 coat protein, measured apparent KD of MS2 coat protein of the sequence listed here: AGCCAUGGAAACAUGGCGGCGGCUUGAGCGCGAGGACCGGUACGGCCGCCACUCGGGCAACAUGAGGAUCACCCAUGUUCCUCAU [ETA NP+V+V2 #19]
Solution: 0.0757 µM

Exercise: State, for MS2 coat protein, measured apparent KD of MS2 coat protein of the sequence listed here: ACACGAAGCUGAAGGAGCGUGGUACAAGUUUUUACAUGAGGAUCACCCAUGUUUCGUCAAUCACAGGUAGGUCGCAGAUGCGUGA [#08 Same State - Arginine B]
Solution: 0.0366 µM

Exercise: State, for MS2 coat protein, measured apparent KD of MS2 coat protein of the sequence listed here: UUGACAUGAGGAUCACCCAUGUAAACUGAAGGAGCGUCGAAAAUGACAGGUAGGUCGCAGAAUAAUAAUGGUGAUCGUAAAUAUU [#12 Exclusion - Arginine A]
Solution: 0.0839 µM

Exercise: State, for MS2 coat protein, measured apparent KD of MS2 coat protein of the sequence listed here: UCGACGAUGACCAAAGGUCAGGAGUACGUACGAGGACCGGUACGGCCGCCACUCGAGGAGUGGGACAUGAGGAUCACCCAUGUGG [#20 Exclusion Tryptophan A]
Solution: 0.0437 µM

Exercise: State, for MS2 coat protein, measured apparent KD of MS2 coat protein of the sequence listed here: UAUCGCGCGGCGGCCGCCACUAAUGGCAGAUCUGUCGACUAACAUGAGGAUCACCCAUGUCUAACUAGGACCGGGCCCAAGUUGU [theeternabot_sameState_MS2_Trp_B_7]
Solution: 0.059 µM

Exercise: State, for MS2 coat protein, measured apparent KD of MS2 coat protein of the sequence listed here: AAACAUGAGGAUCACCCAUGUUGAGGAUCACGAGGACCGGUACGGCCGCCACUCGACAUGAGGAUCACCCAUGUGAGGAUCACCC [Same State - Tryptophan A #1]
Solution: 0.337 µM

Exercise: State, for MS2 coat protein, measured apparent KD of MS2 coat protein of the sequence listed here: UACCGAUACGGAAGGAGCGUAGAAGUAGUACAUGAGGAUCACCCAUGUAUGGGUAAUUUCGUACAGGUAGGUCGCCGUAUCGGUA [SSAB NP+V+V2 #23]
Solution: 0.04 µM

Exercise: State, for MS2 coat protein, measured apparent KD of MS2 coat protein of the sequence listed here: CACAUGAGGAUCACCCAUGUCUGAACUGAAGGAGCGCUAAACAAGGCAGGUAGGUCGCGGAAUCCUGUGUGCAUAUGCACACGGG [9.W]
Solution: 0.0261 µM

Exercise: State, for MS2 coat protein, measured apparent KD of MS2 coat protein of the sequence listed here: GGGUCAGGCGCGGCCGCCACUGCGGUGAUGUGACAUGAGGAUCACCCAUGUUGUCAUGUGGCACAUAGGACCGGGUGCCUGGCCC [#1 Exclusion - Tryptophan B Attempt #6 (HarryS)]
Solution: 0.0338 µM

###

Test system: MS2 coat protein
Assay: apparent KD of MS2 coat protein; designed switch direction (-1 OFF switch, 1 ON switch): -1; higher = weaker reporter binding
Settings: input ligand: none
I'd appreciate it if you could supply apparent KD of MS2 coat protein values for the items below.
Number only, in nM; omit the unit.

Exercise: Annotate the sequence GGAGAGAUAUAGGAUAUGGGAGGGAGGACCGGACCAGAAGGAUAGACAUGAGGAUCACCCAUGUAGAGAUCCUC [AK-MS2ROC-r4-exclusion6-6.1] (Eterna round: R97, puzzle: Exclusion 6) with its measured apparent KD of MS2 coat protein.
Solution: 270

Exercise: Annotate the sequence GAACAGGUAGGAUAUACUGGACGCGACAUGAGGAUCACCCAUGUCCUCGGCAUAGGCGCUGUAGAAGGGCCUAAAA [Eternabot (Original) Solution 29] (Eterna round: R97, puzzle: Exclusion 5) with its measured apparent KD of MS2 coat protein.
Solution: 30.2

Exercise: Annotate the sequence UUUAUGUCAGGAUAUACAUGAGGAUCACCCAUGUAUAUCUAAAAAUAUACAUGGGUAUGUAGAAGGGACCUCCU [Omei Ex3 Pseudoloop 2] (Eterna round: R97, puzzle: Exclusion 3) with its measured apparent KD of MS2 coat protein.
Solution: 146

Exercise: Annotate the sequence CUCUCACAUGAGGAUCACCCAUGUUAGGAUAUUCCGUAGCGACUUACAAGAGGAGCAGGAAGAAGGAGCCUGGC [Eternabot (L1) Solution 40] (Eterna round: R97, puzzle: Exclusion 1) with its measured apparent KD of MS2 coat protein.
Solution: 435

Exercise: Annotate the sequence CGUAUGUGAGGAUAUGACAAUGGUAUCUUCGGAUACCAUUGUCAGAAGGAACAUGAGGAUCACCCAUGUAGAUC (Eterna round: R96, puzzle: Exclusion 4) with its measured apparent KD of MS2 coat protein.
Solution: 54.5

###

System: MS2 coat protein
Experiment: apparent KD of MS2 coat protein; designed switch direction (-1 OFF switch, 1 ON switch): -1; higher = weaker reporter binding
Settings: Eterna round: R95; input ligand: none
value-type: apparent KD of MS2 coat protein (nM)
Number only, in nM; omit the unit.

Exercise: Annotate the sequence AGUACAAACACGAAAGUGUUUGUACAAUAAGCUUGUGGAACAUGAGGAUCACCCAUGUCCUCAUAAGCUCGUCUUAU [Mat - Sensor v3 - Turn-off var 2 - D29] (puzzle: Sensor v3, turn-off variant 2) with its measured apparent KD of MS2 coat protein.
Solution: 14.5

Exercise: Annotate the sequence CAUGAUCUUCGGAUCAUGUACAUGAGGAUCACCCAUGUGACGAGUUUAUGGGUGAACAAGCUUUUUGCUCGUCUUAU [Sensor v3 - Turn-off variant 1 - 6] (puzzle: Sensor v3, turn-off variant 1) with its measured apparent KD of MS2 coat protein.
Solution: 68.9

Exercise: Annotate the sequence AUUUAGAGAGGAUAUAUAUUUUAAAACAUGAGGAUCACCCAUGUAAUUUUAUGGGAGAAAAUAGAAGGCUCAUUUA [JMFs Solution 1] (puzzle: Exclusion 5) with its measured apparent KD of MS2 coat protein.
Solution: 197
